Assay: Inhibition of N-terminal His6-tagged Trypanosoma brucei CTPS assessed as NH3-dependent CTP formation by continuous spectrophotometric assay
REPORTED_ENDPOINT: IC50
State the value, then name its unit.

Look over these answered cases.
Please fill in: IC50 reported for Cn1c(=O)c2c(ncn2C)n(C)c1=O = 480 µM

Nc1nc2c(ncn2[C@@H]2O[C@H](CO)[C@@H](O)[C@H]2O)c(=O)[nH]1 yielded IC50 of 380 µM

What the record says about Nc1nc(=O)c2ncn([C@@H]3O[C@H](COP(=O)(O)OP(=O)(O)OP(=O)(O)O)[C@@H](O)C3O)c2[nH]1 (single isomer, unassigned) : IC50 is 460 µM

New cases:
Reported IC50 ( Oc1nc(O)c2nc(O)[nH]c2n1 ) = 100 µM

###

Experiment: Inhibition of N-terminal His6-tagged Trypanosoma brucei CTPS assessed as NH3-dependent CTP formation by continuous spectrophotometric assay
REPORTED_ENDPOINT: pKi
Quick note: pKi values are minus log10 of concentrations in mol/L.

The compound listed as Nc1nc(=O)c2ncn([C@@H]3O[C@H](COP(=O)(O)OP(=O)(O)OP(=O)(O)O)[C@@H](O)C3O)c2[nH]1 (single isomer, unassigned) shows pKi equal to 3.57

###

Assay: Activity of Escherichia coli CTPS assessed as conversion of UTP to CTP at pH 7.3 by continuous spectrophotometric assay
REPORTED_ENDPOINT: Ki (µM)
Write the number in µM without appending the unit.

Quick note, Ki for N [AMMONIA SOLUTION, STRONG] landed at 1400

###

Assay: Activity of N-terminal His6-tagged Trypanosoma brucei CTPS assessed as conversion of UTP to CTP at pH 7.3 by continuous spectrophotometric assay
REPORTED_ENDPOINT: pKi
Reminder that pKi is minus the log10 of a molar concentration.

get_value(item= N , readout=pKi) returns 2.24
